Values compiled from patent US12264134B2.

- test_target: UniProtKB P14902
- Sequence (P14902 whole entry): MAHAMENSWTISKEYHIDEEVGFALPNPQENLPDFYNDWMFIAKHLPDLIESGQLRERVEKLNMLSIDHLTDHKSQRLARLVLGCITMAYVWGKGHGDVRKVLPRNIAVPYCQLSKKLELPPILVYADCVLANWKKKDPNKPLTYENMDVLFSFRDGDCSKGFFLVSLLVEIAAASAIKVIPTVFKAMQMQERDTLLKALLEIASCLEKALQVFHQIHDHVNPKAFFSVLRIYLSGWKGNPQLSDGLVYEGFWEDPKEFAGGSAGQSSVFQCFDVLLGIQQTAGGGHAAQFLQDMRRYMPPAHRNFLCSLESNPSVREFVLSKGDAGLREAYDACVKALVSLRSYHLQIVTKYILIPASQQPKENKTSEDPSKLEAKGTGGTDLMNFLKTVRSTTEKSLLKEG
- assay_comment: IDO1 Human Whole blood Assay
- Type: cell-based
- Parameters: Human whole blood was drawn in sodium heparin coated tubes from healthy internal donors; from tissue; host or cells: human whole blood from healthy donors, stimulated with LPS and IFNγ
- condition_info: LPS and IFNγ stimulated, 18 h, read-out: Human Whole Blood Potency, IC50
Where a name gives a salt, the structure may show the parent alone.
Label scheme for IC50: low range (below 200 nM), mid range (200 nM to below 600 nM), high range (600 nM or more)

compound | answer_label
Cc1cccc(N2CCN(C(=O)Cn3nc(C(=O)N4CC[C@H](O)[C@@H](F)C4)c4c3CCCC4)CC2)c1C | low range
Cc1cccc(N2CCN(C(=O)Cn3nc(C(=O)N4CCO[C@@H](CO)C4)c4c3C[C@H]3C[C@@H]43)C3(CC3)C2)c1C | high range
Cc1cccc(N2CCN(C(=O)Cn3nc(C(=O)N4C[C@@H](C)O[C@@H](C)C4)c4c3CCC4)CC2)c1C | mid range
Cc1cccc(N2CCN(C(=O)Cn3nc(C(=O)N4CCC(O)CC4)c4c3CCCC4)CC2)c1C | mid range
Cc1c(N2CCN(C(=O)Cn3nc(C(=O)N4CCC(O)CC4)c4c3C[C@H]3C[C@@H]43)CC2)cccc1C(F)(F)F | low range
Cc1cccc(N2CCN(C(=O)Cn3nc(C(=O)N4CC[C@H](O)[C@H](F)C4)c4c3C[C@H]3C[C@@H]43)CC2)c1C | low range
Cc1cccc(N2CCN(C(=O)Cn3nc(C(=O)N4CCC(C)(CO)CC4)c4c3CCC4)CC2)c1C | low range
Cc1cccc(N2CCN(C(=O)Cn3nc(C(=O)N4CCN(C)[C@H](C)C4)c4c3CCC4)CC2)c1C | low range
Cc1cccc(N2CCN(C(=O)Cn3nc(C(=O)N4CC[C@@H](O)[C@@H](F)C4)c4c3CC(F)C4)CC2)c1C (single isomer, unassigned) [Example 418] | high range
Cc1cccc(N2CCN(C(=O)Cn3nc(C(=O)N4CCC5(CO)CC4C5)c4c3C[C@H]3C[C@@H]43)C(C)(C)C2)c1C | high range
Cc1c(Cl)cccc1N1CCN(C(=O)Cn2nc(C(=O)N3CCC(O)CC3)c3c2C(F)(F)[C@H]2C[C@@H]32)CC1 | mid range
Cc1cccc(N2CCN(C(=O)Cn3nc(C(=O)N4CCN(C(=O)CO)CC4)c4c3C[C@H]3C[C@@H]43)CC2)c1C | low range
Cc1cccc(N2CCN(C(=O)Cn3nc(C(=O)N4CCN(CCO)CC4)c4c3C[C@H]3C[C@@H]43)CC2)c1C | low range
Cc1c(F)ccc(N2CCN(C(=O)Cn3nc(C(=O)N4CCN(CC(N)=O)CC4)c4c3C[C@H]3C[C@@H]43)C3(CC3)C2)c1C | high range
Cc1cccc(N2CCN(C(=O)Cn3nc(C(=O)N4CCC(O)(CF)CC4)c4c3C[C@H]3C[C@@H]43)CC2)c1C | low range
Cc1cccc(N2CCN(C(=O)Cn3nc(C(=O)N4CCN(CC(N)=O)CC4)c4c3CCC4)CC2)c1C | low range
Cc1cccc(N2CCN(C(=O)Cn3nc(C(=O)N4CCC(O)CC4)c4c3CCC4)C3(CC3)C2)c1C | high range
Cc1cccc(N2CCN(C(=O)Cn3nc(C(=O)N4CCN(C5COC5)CC4)c4c3CCC4)CC2)c1C | mid range
Cc1cccc(N2CCN(C(=O)Cn3nc(C(=O)N4CC[C@H](N)[C@@H](F)C4)c4c3CCC4)CC2)c1C [Example 203, formate] | mid range
Cc1cccc(N2CCN(C(=O)Cn3nc(C(=O)N4CC[C@H](O)[C@H](C)C4)c4c3CCC4)CC2)c1C | low range
Cc1c(F)ccc(N2CCN(C(=O)Cn3nc(C(=O)N4CCN(C(=O)CO)CC4)c4c3C[C@H]3C[C@@H]43)C3(CC3)C2)c1C | mid range
Cc1cccc(N2CCN(C(=O)Cn3nc(C(=O)N4CCC(OCCO)CC4)c4c3C[C@H]3C[C@@H]43)[C@H]3CCC[C@@H]32)c1C (racemic) | high range
Cc1cccc(N2CCN(C(=O)Cn3nc(C(=O)N4CC[C@@H](O)C[C@@H]4C)c4c3C[C@H]3C[C@@H]43)CC2)c1C | high range
Cc1cccc(N2CCN(C(=O)Cn3nc(C(=O)N4CCC(O)C(F)C4)c4c3CCC4)C3(CC3)C2)c1C (stereo not drawn) [Example 325] | high range
Cc1c(Cl)cccc1N1CCN(C(=O)Cn2nc(C(=O)N3CCN(C(=O)CO)CC3)c3c2C[C@H]2C[C@@H]32)CC1 | low range
